Task for the reader: assign each of the following compounds its reported EC50.
Target: Zinc finger protein mex-5 (Caenorhabditis elegans)
Sequence (Q9XUB2 whole entry): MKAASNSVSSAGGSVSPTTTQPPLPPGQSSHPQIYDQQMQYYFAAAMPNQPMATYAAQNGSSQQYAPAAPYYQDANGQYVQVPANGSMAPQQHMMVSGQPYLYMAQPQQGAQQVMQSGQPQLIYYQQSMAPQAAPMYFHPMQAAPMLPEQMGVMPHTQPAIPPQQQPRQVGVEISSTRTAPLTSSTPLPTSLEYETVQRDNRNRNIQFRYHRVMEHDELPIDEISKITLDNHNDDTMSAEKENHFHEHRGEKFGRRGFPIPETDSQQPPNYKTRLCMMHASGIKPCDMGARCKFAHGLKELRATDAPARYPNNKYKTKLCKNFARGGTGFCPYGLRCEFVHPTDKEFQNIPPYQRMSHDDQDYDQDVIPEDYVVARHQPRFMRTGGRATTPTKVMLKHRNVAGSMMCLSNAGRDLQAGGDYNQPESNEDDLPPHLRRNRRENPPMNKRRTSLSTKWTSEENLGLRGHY
Assay: MEX-5/TCR-2 RNA interaction inhibitors, dose response, biochemical, C. elegans, fluorescence polarization (AID 1960)
A number alone suffices; assume µM.

Consider Cc1nnc(N2C(=O)C(=O)C(C(=O)c3ccco3)C2c2ccc(F)cc2)s1 (stereo unspecified) . Its measured EC50 is 32.9

Consider CC(N=Nc1ccc(Cl)c(C(=O)O)c1)c1ccc[nH]1 (stereo unspecified) . Its measured EC50 is 150

Consider `Oc1ccc(C=Nn2c(O)csc2=S)c(O)c1O` . Its measured EC50 is 0.668

Consider `COc1ccccc1OCC(=O)NN=Cc1c(O)ccc2ccccc12` . Its measured EC50 is 131

Consider Brc1ccc(C2=Nc3ncnn3C(c3ccco3)C2)cc1 (stereo unspecified) . Its measured EC50 is 18.1

Consider CN1CCC2=C(C#N)C(=N)C(C#N)(C#N)[C@H](c3cccc(Cl)c3)C2C1 (stereo partly specified) . Its measured EC50 is 11.6

Consider CC(=N)C(C#N)C(=O)CSc1ncnc2ccccc12 (stereo unspecified) . Its measured EC50 is 8.02

Consider Cc1nnc(=O)[nH]c1N=NCC1C=CC(=O)C([N+](=O)[O-])=C1 (stereo unspecified) . Its measured EC50 is 65.5

Consider CSc1nnc(N2C(=O)C(=O)C(C(=O)c3ccco3)C2c2cccc(Cl)c2)s1 (stereo unspecified) . Its measured EC50 is 14.3

Consider `O=C1NC(=S)N(c2ccccc2)C(=O)C1=Cc1ccco1` . Its measured EC50 is 254

###

target: Zinc finger protein mex-5 (Caenorhabditis elegans, UniProt Q9XUB2); assay: MEX-5/TCR-2 RNA interaction inhibitors, dose response, biochemical, C. elegans, fluorescence polarization (AID 1960)
measuredMetric: pEC50
Please report pEC50 as the negative decimal logarithm of the molar concentration, giving only the number.

Consider C[C@H]1c2cccc(O)c2C(=O)C2C(=O)[C@]3(O)C(=O)C(C(N)=O)C(=O)[C@@H](N(C)C)C3C(O)C21 (stereo not given in full) . Its measured pEC50 is 4.34

Consider CN(C)c1ccc(O)c2c1CC1CC3C(N(C)C)C(=O)C(C(N)=O)C(=O)[C@@]3(O)C(=O)C1C2=O (stereo not given in full) . Its measured pEC50 is 4.43

Consider CN(C)[C@@H]1C(=O)C(C(N)=O)C(=O)[C@@]2(O)C(=O)C3C(=O)c4c(O)cccc4[C@@](C)(O)[C@H]3[C@H](O)[C@@H]12 (stereo not given in full) . Its measured pEC50 is 4.52

Consider `CN(C)c1ccc(C=NN(CCC(=O)NC(C)(C)C)C2=NS(=O)(=O)c3ccccc32)cc1` . Its measured pEC50 is 4.44

Consider `COc1ccc(C(=O)CC=Nc2ccc([N+](=O)[O-])cc2C)cc1OC` . Its measured pEC50 is 3.82

Consider Fc1ccc(C2=Nc3ncnn3C(c3ccco3)C2)cc1 (stereo not given) . Its measured pEC50 is 4.89

Consider `Cc1cc(C)cc(N2C(=O)NC(=O)C(=Cc3cccn3-c3ccc(Cl)cc3)C2=O)c1` . Its measured pEC50 is 3.87

Consider CSc1nnc(N2C(=O)C(=O)C(C(=O)c3ccco3)C2c2ccc(F)cc2)s1 (stereo not given) . Its measured pEC50 is 4.08

Consider `C=CCc1cccc(C=Nn2cnnc2)c1O` . Its measured pEC50 is 3.62

Consider `Cc1[nH]n(C(N)=S)c(=O)c1N=Nc1ccc(S(N)(=O)=O)cc1` . Its measured pEC50 is 5.05

Consider `O=C(Cc1nc2ccccc2n(-c2ccccc2)c1=O)c1ccccc1` . Its measured pEC50 is 5.21

Consider COc1ccc(C2C(C(=O)c3ccco3)C(=O)C(=O)N2c2nnc(C)s2)cc1OC (stereo not given) . Its measured pEC50 is 3.53

Consider O=C1C(=O)N(c2ncccn2)C(c2cccs2)C1C(=O)c1ccco1 (stereo not given) . Its measured pEC50 is 4.50

Consider `COc1ccc(N=C(C(=C(Cl)C(Cl)Cl)[N+](=O)[O-])n2nnc3ccccc32)cc1` . Its measured pEC50 is 4.31

Consider `Cc1cc(O)c(C(C)C)cc1Nc1csc(=O)[nH]1` . Its measured pEC50 is 4.46

Consider `C=CCn1c(=O)c(=Cc2ccsc2)s/c1=C(\C#N)C(=O)NCCN1CCOCC1` . Its measured pEC50 is 4.66

Consider `CCOc1ccc(N=C(C(=C(Cl)C(Cl)Cl)[N+](=O)[O-])n2cncn2)cc1` . Its measured pEC50 is 4.34

Consider `O=C1c2cccc3cccc(c23)C(=O)C1[N+](=O)[O-]` . Its measured pEC50 is 5.04
